In this section we review reported EC50, cAMP values for a set of binders.
target: human glucagon receptor (human, UniProt P47871 26-477); assay: cell-based or functional assay

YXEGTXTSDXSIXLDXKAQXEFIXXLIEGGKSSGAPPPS (Aib2, αMeF(2F)6, 4Pal10, αMeL13, Orn16, Aib20, D-Glu24, αMeY25, K17 and K31: K(AEEA-(εK)-(γ-Glu)-CO-(CH2)12-CO2H), C-terminal NH2) [Example 35] : > 9.95 µM
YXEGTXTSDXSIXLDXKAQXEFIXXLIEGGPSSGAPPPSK (Aib2, αMeF(2F)6, 4Pal10, αMeL13, Orn16, Aib20, D-Glu24, αMeY25, K17 and K40: K(AEEA2-(γ-Glu)-CO-(CH2)12-CO2H), C-terminal NH2) [Example 19] : > 9.95 µM
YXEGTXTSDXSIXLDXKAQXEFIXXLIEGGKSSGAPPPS (Aib2, αMeF(2F)6, Bzt10, αMeL13, Orn16, Aib20, D-Glu24, αMeY25, K17 and K31: K(AEEA2-(γ-Glu)-CO-(CH2)12-CO2H), C-terminal NH2) [Example 142] : > 9.95 µM
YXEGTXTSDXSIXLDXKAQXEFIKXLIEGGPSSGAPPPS (Aib2, αMeF(2F)6, 4Pal10, αMeL13, Orn16, Aib20, αMeY25, K17 and K24: K(AEEA2-(γ-Glu)-CO-(CH2)10-CH3), C-terminal NH2) [Example 138] : > 9.95 µM

For the binder shown here, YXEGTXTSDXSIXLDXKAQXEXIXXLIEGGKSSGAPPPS (Aib2, αMeF(2F)6, 4Pal10, αMeL13, Orn16, Aib20, αMeF(2F)22, D-Glu24, αMeY25, K17 and K31: K(AEEA2-(γ-Glu)-CO-(CH2)12-CO2H), C-terminal NH2) [Example 88] , give the reported EC50, cAMP.
> 9.95 µM
